# TESTED TARGET: Cannabinoid receptor 1 (Homo sapiens, UniProt P21554)
# Sequence (P21554 whole entry): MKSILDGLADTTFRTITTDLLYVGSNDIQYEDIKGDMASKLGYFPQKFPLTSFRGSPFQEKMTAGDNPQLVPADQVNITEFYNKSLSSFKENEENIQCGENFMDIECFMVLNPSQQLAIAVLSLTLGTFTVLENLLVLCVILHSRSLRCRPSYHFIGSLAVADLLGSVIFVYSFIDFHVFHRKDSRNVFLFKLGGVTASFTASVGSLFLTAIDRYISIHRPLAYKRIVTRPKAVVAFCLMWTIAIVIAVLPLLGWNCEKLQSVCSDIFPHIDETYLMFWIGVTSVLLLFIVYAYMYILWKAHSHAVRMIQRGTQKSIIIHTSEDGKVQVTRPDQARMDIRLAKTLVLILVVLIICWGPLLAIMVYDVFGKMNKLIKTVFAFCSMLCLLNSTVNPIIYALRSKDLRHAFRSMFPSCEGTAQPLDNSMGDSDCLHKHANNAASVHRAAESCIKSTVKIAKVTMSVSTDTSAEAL
# PROTOCOL DETAILS: Displacement of [3H]CP55940 from human CB1 receptor expressed in human HEK293 cells
# Format: cell-based
We label by threshold. Values of Ki strictly beneath 800 nM are rule met. Values of 800 nM and up are rule not met.

(Q) Is it true that Ki reported for CCCCCCC(C)(C)c1cc(O)cc(OCCCCCCCC(=O)OC(CO)CO)c1 is less than 800 nM?
(A) rule not met

(Q) Is it true that Ki reported for CCCCCc1cc(O)cc(OCCCCCCCCCCCCOC(CO)CO)c1 is less than 800 nM?
(A) rule not met

(Q) Is it true that Ki reported for CCCCCc1cc(O)cc(OCCCCCCOC(CO)CO)c1 is less than 800 nM?
(A) rule met

(Q) Is it true that Ki reported for CCCCCCc1ccc(OCCCCCCOC(CO)CO)cc1O is less than 800 nM?
(A) rule not met

(Q) Is it true that Ki reported for CCCCCc1cc(O)cc(OCCCCCCCCOC(CO)CO)c1 is less than 800 nM?
(A) rule not met
